target: TNFa/TNFRI interaction (Homo sapiens, UniProt P01375); assay: TNFa/TNFRI interaction displacement test; assay type: binding; conditions: compounds at 50 μM; human TNFRI 100 ng/ml
Sequence (P01375 77-233 limits assumed): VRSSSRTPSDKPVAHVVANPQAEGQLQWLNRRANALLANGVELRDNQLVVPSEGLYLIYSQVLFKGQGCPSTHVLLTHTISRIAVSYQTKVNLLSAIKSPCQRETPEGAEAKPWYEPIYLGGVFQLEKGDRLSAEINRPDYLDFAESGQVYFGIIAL
PROPERTY LABEL: Displacement (%)
Hi! Could you send only the number? It should be in %, unit omitted.

Example entries and their recorded answers appear below.
COMPOUND | Displacement (%)
CN(CCN(Cc1ccncc1)Cc1cn(S(=O)(=O)c2ccccc2)c2ccccc12)C1CCCCC1 | 125
CN(CCCCN(Cc1ccn(S(=O)(=O)c2ccccc2)c1)Cc1cccnc1F)C1CCCCC1 | 87

State, in one line, measured Displacement (%) of CN(CCCCCN(Cc1cccnc1F)Cc1cn(S(=O)(=O)c2ccccc2)c2ccccc12)C1CCCCC1
145

State, in one line, measured Displacement (%) of FC(F)(F)c1cccc(-n2cc(CN(CCNC3CCCCC3)Cc3cccnc3)c3ccccc32)c1
106

State, in one line, measured Displacement (%) of CN(CCOCCN(Cc1cccnc1F)Cc1cn(S(=O)(=O)c2ccccc2)c2ccccc12)C1CCCC1 [Compound 105]
162

State, in one line, measured Displacement (%) of CN(CCCCN(Cc1cccnc1F)Cc1cn(C)c2ccccc12)C1CCCCC1
16

State, in one line, measured Displacement (%) of CN(CCCN(Cc1ccncc1)Cc1cn(S(=O)(=O)c2ccccc2)c2ccccc12)C1CCCCC1
215

State, in one line, measured Displacement (%) of O=S(=O)(c1ccccc1)n1cc(CN(CCCCCNC2CCCCC2)Cc2cccnc2)c2ccccc21
256

State, in one line, measured Displacement (%) of O=S(=O)(c1ccccc1)n1cc(CN(CCNC2CCCCC2)Cc2ccncc2)c2ccccc21
107

State, in one line, measured Displacement (%) of O=S(=O)(c1ccccc1)n1cc(CN(CCCCCNC2CCCCC2)Cc2ccncc2)c2ccccc21
273

State, in one line, measured Displacement (%) of O=S(=O)(c1ccccc1)n1cc(CN(CCCNC2CCCCC2)Cc2ccncc2)c2ccccc21
168

* * *

Documented IC50 across a set of compounds
Target chain: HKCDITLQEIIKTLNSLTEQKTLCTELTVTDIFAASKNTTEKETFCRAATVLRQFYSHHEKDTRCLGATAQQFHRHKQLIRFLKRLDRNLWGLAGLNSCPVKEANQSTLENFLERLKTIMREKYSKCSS
Hi! Could you send only the number? It should be in µM, unit omitted.

Example entries and their recorded answers appear below.
ITEM SMILES | UNIT STRING | IC50
CN(CCCCCN(Cc1ccc(F)nc1)Cc1cn(S(=O)(=O)c2ccccc2)c2ccccc12)C1CCCCC1 | µM | 2.1
CN(CCCCCN(Cc1cccnc1)Cc1cn(S(=O)(=O)c2ccccc2)c2ccccc12)C1CCCCC1 | µM | 3.4
CN(CCCCCN(Cc1ccncc1)Cc1cn(-c2cccc(C(F)(F)F)c2)c2ccccc12)C1CCCCC1 | µM | 4.7

Please turn your attention to the following entry.
State, in one line, measured IC50 of CN(CCCN(Cc1cccnc1)Cc1cn(S(=O)(=O)c2ccccc2)c2ccccc12)C1CCCCC1
8

* * *

Molecular target: IL-4 (Homo sapiens, UniProt P05112)
Sequence (P05112 25-153): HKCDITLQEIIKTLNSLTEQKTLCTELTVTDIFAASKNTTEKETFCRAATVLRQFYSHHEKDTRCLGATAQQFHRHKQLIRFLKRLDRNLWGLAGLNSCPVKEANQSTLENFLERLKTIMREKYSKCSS
Test: Immunoassay binding test, IL-4
Conditions: 100 μM
Method: Microtiter plates (96 wells) are covered with 100 μl of receptor per well, and incubated overnight at 4° C. The following day, after 2 washes in PBS/Tween20, the plates are saturated with 150 μl of PBS/BSA 2% per well, for 2 h at 37° C. […] The plates are then read with a spectrophotometer at 450 nm, measuring the optical density for each well. […]
PROPERTY LABEL: BINDING IL4 % Neutra at 100 μM (%)
Hi! Could you send only the number? It should be in %, unit omitted.

COMPOUND | UNIT STRING | BINDING IL4 % Neutra at 100 μM
O=S(=O)(NCCCCN(Cc1cccnc1F)Cc1cn(S(=O)(=O)c2ccccc2)c2ccccc12)N1CCCCC1 [Compound 80] | % | 29.1
O=S(=O)(c1ccccc1)n1cc(CN(Cc2ccnc(F)c2)CC2CCCN(C3CCCCC3)C2)c2ccccc21 (stereo not shown) [Compound 19] | % | 99
CCCCN(CCOCCN(Cc1cccnc1F)Cc1cn(S(=O)(=O)c2ccccc2)c2ccccc12)C1CCCC1 [Compound 109] | % | 86.3

State, in one line, measured BINDING IL4 % Neutra at 100 μM of CCn1cc(CN(CCCCN(C)C2CCCCC2)Cc2cccnc2F)c2ccccc21 [Compound 96]
74.5

* * *

target: TNFa/TNFRI interaction (Homo sapiens); assay: TNFa/TNFRI interaction displacement test; assay type: binding; details: compounds at 50 μM; human TNFRI 100 ng/ml
PROPERTY LABEL: Displacement (%)
Hey, just the number and the unit after it is fine.

Example entries and their recorded answers appear below.
ITEM SMILES | Displacement (%)
O=S(=O)(c1ccccc1)n1cc(CN(CCOCCNC2CCCCC2)Cc2cccnc2F)c2ccccc21 | 197%
CN(C)S(=O)(=O)NCCCCN(Cc1cccnc1F)Cc1cn(S(=O)(=O)c2ccccc2)c2ccccc12 | 11%
CN(CCOCCN(Cc1cccnc1F)Cc1cn(S(=O)(=O)N2CCCCC2)c2ccccc12)C1CCCCC1 | 245%

Please turn your attention to the following entry.
State, in one line, measured Displacement (%) of CN(CCCCN(Cc1cccnc1F)Cc1cn(S(=O)(=O)c2ccccc2)c2ccccc12)C1CCCC1
208%

* * *

Documented BINDING IL6 % Neutra at 100 μM across a set of compounds
molecular target: IL-6 (Homo sapiens); test: Immunoassay binding test, IL-6 (gp130 receptor, IL-6Ra present); conditions: IL-6Ra 200 ng/ml
Sequence (P05231 30-212, species assumed): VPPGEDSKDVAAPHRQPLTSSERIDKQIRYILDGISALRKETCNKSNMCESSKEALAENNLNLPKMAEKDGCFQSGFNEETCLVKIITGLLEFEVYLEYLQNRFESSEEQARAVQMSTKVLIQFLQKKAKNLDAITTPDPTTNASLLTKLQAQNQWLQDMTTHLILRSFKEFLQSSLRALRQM
Hi! Could you send only the number? It should be in %, unit omitted.

Example entries and their recorded answers appear below.
COMPOUND | UNIT STRING | BINDING IL6 % Neutra at 100 μM
O=S(=O)(c1ccccc1)n1cc(CN(CCCCNC2CCCCC2)Cc2ccncc2)c2ccccc21 [Compound 16] | % | 15.7
O=S(=O)(c1ccccc1)n1cc(CN(CCCCCNC2CCCCC2)Cc2cccnc2)c2ccccc21 [Compound 34] | % | −4.8
CCN(CCOCCN(Cc1cccnc1F)Cc1cn(S(=O)(=O)c2ccccc2)c2ccccc12)C1CCCCC1 [Compound 100] | % | 0
CN(CCCCN(Cc1cccnc1F)Cc1cn(S(=O)(=O)c2ccccc2)c2ccccc12)C1CCCCCC1 [Compound 74] | % | 0
CCn1cc(CN(CCCCN(C)C2CCCCC2)Cc2cccnc2F)c2ccccc21 [Compound 96] | % | 1
O=S(=O)(c1ccccc1)n1cc(CN(CCCNC2CCCCC2)Cc2ccncc2)c2ccccc21 [Compound 8] | % | 3.3
CCCCN(CCCCN(Cc1cccnc1F)Cc1cn(S(=O)(=O)c2ccccc2)c2ccccc12)C1CCCCC1 [Compound 68] | % | 0

Please turn your attention to the following entry.
State, in one line, measured BINDING IL6 % Neutra at 100 μM of O=S(=O)(c1ccccc1)n1cc(CN(CCCCN(C2CCC2)C2CCC2)Cc2cccnc2F)c2ccccc21 [Compound 86]
6

* * *

Biological target: IL-13 (Homo sapiens)
Sequence (P35225 25-146, species assumed): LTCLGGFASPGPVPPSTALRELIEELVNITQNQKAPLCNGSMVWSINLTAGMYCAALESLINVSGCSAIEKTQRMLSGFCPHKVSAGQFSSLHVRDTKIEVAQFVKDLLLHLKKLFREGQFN
Test: Immunoassay binding test, IL-13
Conditions: 100 μM
Method: Microtiter plates (96 wells) are covered with 100 μl of receptor per well, and incubated overnight at 4° C. The following day, after 2 washes in PBS/Tween20, the plates are saturated with 150 μl of PBS/BSA 2% per well, for 2 h at 37° C. […] The plates are then read with a spectrophotometer at 450 nm, measuring the optical density for each well. […]
Documented BINDING IL13 % Neutra at 100 μM across a set of molecules
Hi! Could you send only the number? It should be in %, unit omitted.

Example entries and their recorded answers appear below.
MOLECULE | PROPERTY LABEL | VALUE
CN(CCCCN(Cc1cccnc1F)Cc1cn(S(=O)(=O)c2ccccc2)c2ccccc12)C1CCCCCC1 | BINDING IL13 % Neutra at 100 μM | 87.3
O=S(=O)(c1ccccc1)n1cc(CN(CCCNC2CCCCC2)Cc2ccncc2)c2ccccc21 | BINDING IL13 % Neutra at 100 μM | 81.7

State, in one line, measured BINDING IL13 % Neutra at 100 μM of FC(F)(F)c1cccc(-n2cc(CN(CCNC3CCCCC3)Cc3ccncc3)c3ccccc32)c1
86.8

State, in one line, measured BINDING IL13 % Neutra at 100 μM of CCCCN(CCOCCN(Cc1cccnc1F)Cc1cn(S(=O)(=O)c2ccccc2)c2ccccc12)C1CCCCC1 [Compound 102]
39.2

State, in one line, measured BINDING IL13 % Neutra at 100 μM of CN(CCCCCN(Cc1cccnc1)Cc1cn(-c2cccc(C(F)(F)F)c2)c2ccccc12)C1CCCCC1
94.2

State, in one line, measured BINDING IL13 % Neutra at 100 μM of CN1CCN(S(=O)(=O)n2cc(CN(CCCCN(C)C3CCCCC3)Cc3cccnc3F)c3ccccc32)CC1
72.0

State, in one line, measured BINDING IL13 % Neutra at 100 μM of FC(F)(F)c1cccc(-n2cc(CN(CCCCCNC3CCCCC3)Cc3cccnc3)c3ccccc32)c1
98.9
